# Test system: CI-80-13S ovarian cancer cells
# TEST METHOD NOTES: Cell survival assay (SRB)
# Format: cell-based, human
# MEASUREMENT SETUP: Homo sapiens; read-out: Cytoselectivities (nM) CI80-13S
Record form. Attribute: IC50. Fill in for each entry.
Numbers only, in nM.

Known results for compounds:
SMILES RECORD: O=C(CCCCC[C@H](NC(=O)OCc1ccccc1)C(=O)Nc1cccc2cccnc12)NO
QUANTITY UNIT: nM
IC50: 124

SMILES RECORD: CC(C)COC(=O)N[C@@H](CCCCCC(=O)NO)C(=O)Nc1cccc2cccnc12
QUANTITY UNIT: nM
IC50: 149

SMILES RECORD: O=C(CCCCC[C@H](NC(=O)c1ccc(Br)cc1)C(=O)Nc1ccc(-c2ccccc2)cc1)NO
QUANTITY UNIT: nM
IC50: 158

SMILES RECORD: O=C(/C=C/c1ccccc1)N[C@@H](CCCCCC(=O)NO)C(=O)Nc1cccc2cccnc12
QUANTITY UNIT: nM
IC50: 28

SMILES RECORD: O=C(CCCCC[C@H](NC(=O)c1cc2ccccc2[nH]1)C(=O)Nc1cccc2cccnc12)NO
QUANTITY UNIT: nM
IC50: 20

Here's the next entry for you.
For the compound shown here, "CN(C)c1ccc(C(=O)N[C@@H](CCCCCC(=O)NO)C(=O)Nc2cccc3cccnc23)cc1" , give the reported IC50. 65
